Numbers sourced from ChEMBL document CHEMBL1135601.

Assay: Biodistribution after day 6 in mouse brain
Format: ADME, organism-based
Let's look at some compounds and their measured concentration at 6 day.
Your answer is read as ng/g, so omit the unit and give the number.

- CCC1=C(CC)c2cc3[nH]c(cc4[nH]c(c(C)c4CC)c4[nH]c(cc5nc(cc1n2)C(CCC(=O)NCCOCCOCCN)=C5C)c(CC)c4C)c(C)c3CCC(=O)NCCOCCOCCN: 2400
- CCc1c(CC)c2cc3nc(cc4[nH]c(c(C)c4CC)c4[nH]c(cc5nc(cc1[nH]2)C(CCC(=O)NCCOCCOCCO)=C5C)c(CC)c4C)C(C)=C3CCC(=O)NCCOCCOCCO: 4300
- CCc1c(CC)c2cc3nc(cc4[nH]c(c(C)c4CC)c4[nH]c(cc5nc(cc1[nH]2)C(CCC(=O)NC1C(O)OC(CO)C(O)C1O)=C5C)c(CC)c4C)C(C)=C3CCC(=O)NC1C(O)OC(CO)C(O)C1O (stereo unspecified): 750
- CCc1c(CC)c2cc3nc(cc4[nH]c(c(C)c4CC)c4[nH]c(cc5nc(cc1[nH]2)C(CCC(=O)N(CCO)CCO)=C5C)c(CC)c4C)C(C)=C3CCC(=O)N(CCO)CCO: 290
- CCc1c(CC)c2cc3nc(cc4[nH]c(c(C)c4CC)c4[nH]c(cc5nc(cc1[nH]2)C(CCC(=O)NCCN(CCN)CCN)=C5C)c(CC)c4C)C(C)=C3CCC(=O)NCCN(CCN)CCN: 160

Summary for this compound, C=CC1=C(C)c2cc3nc(cc4[nH]c(cc5[nH]c(cc1n2)c(C)c5CCC(=O)NC1C(O)OC(CO)C(O)C1O)c(CCC(=O)NC1C(O)OC(CO)C(O)C1O)c4C)C(C=C)=C3C (stereo unspecified) : concentration at 6 day is 320
